Consider the following sequences; for each one, report its binding signal.
- target-entity: GST-ATAF1 NAC domain (Arabidopsis thaliana, UniProt Q39013 7-158)
- Sequence: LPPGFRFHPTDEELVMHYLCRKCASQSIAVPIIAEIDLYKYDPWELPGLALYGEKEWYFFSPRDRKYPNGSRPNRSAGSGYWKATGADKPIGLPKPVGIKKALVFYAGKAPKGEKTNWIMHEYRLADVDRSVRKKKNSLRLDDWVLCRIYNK
- experiment: universal protein binding microarray (PBM); high values mean tight binding
- assay-conditions: protein: recombinant; tags: GST; chain copies: 2; dsDNA, one strand shown
Numbers only, in E-score.

Guide cases for binding signal, answers given:
{"sequence-entry": "ACGTCATC", "display-unit": "E-score", "reported": 0.291}
{"sequence-entry": "GTGGTCAA", "display-unit": "E-score", "reported": 0.135}

Field: binding signal. Fill in for each record below.
1. TGAAGTAA
2. TTAGTCAA

Reply text:
0.169
0.107

Inquiry: Quick one: binding signal of TGGCGTAA ?
Reply text: 0.16

====

- target-entity: GST-ANAC092(1-176) (Arabidopsis thaliana, UniProt Q9FKA0 1-176)
- Sequence: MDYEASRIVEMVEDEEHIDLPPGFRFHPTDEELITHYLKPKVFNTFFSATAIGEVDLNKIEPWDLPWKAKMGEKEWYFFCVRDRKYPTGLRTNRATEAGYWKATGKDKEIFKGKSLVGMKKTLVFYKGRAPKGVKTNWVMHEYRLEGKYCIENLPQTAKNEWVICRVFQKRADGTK
- experiment: universal protein binding microarray (PBM); high values mean tight binding
- assay-conditions: protein: recombinant; tags: GST; chain copies: 2; dsDNA, one strand shown
Mark Yes for binding signal under 0.4 E-score, No if at or over.

Inquiry: Given GTAAGAAA , is recorded binding signal strictly lower than 0.4 E-score?
Reply text: Yes

====

Kindly supply the reported binding signal values for the records listed here.
- target-entity: GST-ANAC019 NAC domain (Arabidopsis thaliana, UniProt Q9C932 14-162)
- Sequence: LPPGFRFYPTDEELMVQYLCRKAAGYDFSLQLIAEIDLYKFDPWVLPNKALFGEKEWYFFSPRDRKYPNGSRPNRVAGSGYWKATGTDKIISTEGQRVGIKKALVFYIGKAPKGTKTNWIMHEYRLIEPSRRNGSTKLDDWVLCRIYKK
- experiment: universal protein binding microarray (PBM); transcription factors of Arabidopsis thaliana; high values mean tight binding
- assay-conditions: protein: recombinant; tags: GST; chain copies: 2; dsDNA, one strand shown
One number for each entry, in E-score.

For orientation, consider the following solved cases.
{"sequence-entry": "GCGTGTTA", "display-unit": "E-score", "reported": 0.214}
{"sequence-entry": "CGTGGTCA", "display-unit": "E-score", "reported": 0.189}
{"sequence-entry": "AAAGTCGT", "display-unit": "E-score", "reported": 0.29}
{"sequence-entry": "AAGGAATG", "display-unit": "E-score", "reported": 0.0613}
{"sequence-entry": "ACGTAATA", "display-unit": "E-score", "reported": 0.351}

Hey, can you go through the list below and give me binding signal for every item?
1. ACGTCTCC
2. ACTTGACC
3. GCGTATAA

Reply text:
0.411
0.05
0.0915
